Origin of measurements: ChEMBL document CHEMBL1146807

# Tested on: HCT-116
# assayProtocol: Cytotoxic activity against H116 cell line
# Assay type: functional, cell-based
# testSettings: Homo sapiens
pIC50: −log10 of the molar value.
measuredMetric: pIC50

I'd like to know its pIC50. The molecule in question is COc1cc(/C=C\c2ccc3nc(C)c(C)nc3c2)cc(OC)c1OC
< 4.80

I'd like to know its pIC50. The molecule in question is COc1cc(/C=C/c2cnc3ccccc3c2)cc(OC)c1OC
< 5.50

I'd like to know its pIC50. The molecule in question is COc1cc(/C=C/c2ccc3nc(C)c(C)nc3c2)cc(OC)c1OC
< 4.80

I'd like to know its pIC50. The molecule in question is COc1cc(/C=C/c2ccc3nccnc3c2)cc(OC)c1OC
< 4.80
